Exercise: state measured inhibition for each of the compounds provided.
# assayTarget: Hexose transporter 1 (Plasmodium falciparum) (UniProt O97467)
# assayDetails: ST_JUDE_LEISH: Cytotoxicity at 2uM final concentration against transgenic Leishmania Mexicana promastigotes LmPfHT that are glucose transport deficient and complemented with the Plasmodium falciparum hexose transporter. Activity is measured by DNA content using SYBR green in vitro
# Type: functional
Answer in %, number only, no unit symbol.

# inhibition measured on Hexose transporter 1 (Plasmodium falciparum) (UniProt O97467) for item COc1ccc(F)cc1-c1cccc(CNC2CCN(CC3Cn4c(=O)ccc5ccc(F)c3c54)CC2)c1 (stereo not given) = 14.3

Bench note, Hexose transporter 1 (Plasmodium falciparum) (UniProt O97467): Cc1c(Cn2ncc(N3CCC(N)CC3)c(Cl)c2=O)cccc1NC(=O)Nc1ccc(-c2ccccc2)cc1 , inhibition reads 4.24

Field inhibition (system: Hexose transporter 1 (Plasmodium falciparum) (UniProt O97467)) for entry O=C(Nc1ccc(-c2nc3ccccc3[nH]2)cc1)C1CCCN(C2CCC2)C1 (stereo not given) = 14.7

The compound CN(C)CCN(C)Cc1ccc(-c2cccc(NC(=O)c3ccc(Cl)cc3)c2)cc1 , when measured on Hexose transporter 1 (Plasmodium falciparum) (UniProt O97467), yielded inhibition of 2.96

The observed inhibition for Cc1cccc2nc(-c3ccc(-c4ccc(NC(=O)Nc5ccc(Cl)c(Cl)c5)cc4)cc3)[nH]c12 when tested with Hexose transporter 1 (Plasmodium falciparum) (UniProt O97467) stands at 1.99

Short answer on Hexose transporter 1 (Plasmodium falciparum) (UniProt O97467) for COc1ccc(NC(=O)[C@H](Cc2ccccc2)Nc2cc(C)nc(NCCc3ccccc3)n2)cc1 , inhibition: 6.29

For the compound Cn1ccnc1CNC(=O)c1ccc(-c2cccc(-c3nc4cc(C(F)(F)F)ccc4[nH]3)c2)cc1 , the measured inhibition on Hexose transporter 1 (Plasmodium falciparum) (UniProt O97467) was 0.7

inhibition value, target or system Hexose transporter 1 (Plasmodium falciparum) (UniProt O97467), for COc1cc(Cc2cnc(N)nc2N)c2c(c1OC)OC(C)C=C2 (stereo not given) : 2.39

inhibition of OC(COCc1ccc(-c2ccccc2)cc1)CN1CCCCC1 (stereo not given) , assay on Hexose transporter 1 (Plasmodium falciparum) (UniProt O97467), is 1.99

The compound N#Cc1cc(C(=O)c2cc(Br)ccc2O)cn(C2CCCCC2)c1=O , tested on Hexose transporter 1 (Plasmodium falciparum) (UniProt O97467), showed inhibition of 1.1

###

# assayTarget: Glucose transporter (Leishmania mexicana)
# assayDetails: ST_JUDE_LEISH: Cytotoxicity at 2uM final concentration against transgenic Leishmania Mexicana promastigotes LmGT2 that are glucose transport deficient and complemented with the L. Mexicana glucose transporter 2. Activity is measured by DNA content using SYBR green in vitro
# Type: functional
Exercise: for every item that follows, state its recorded inhibition.
Report only the number, with the unit % understood.

Record Cc1noc(C)c1-c1ccc2c(Nc3ccccc3C(C)(C)C)c(C(=O)NCc3cccc4ccccc34)cnc2c1 has Glucose transporter (Leishmania mexicana) inhibition equal to 0.05

Measured on Glucose transporter (Leishmania mexicana), CN(C)CCOc1cc(NC(=O)Nc2ccc(-c3ccncc3)c3ccccc23)ccc1I has a documented inhibition of 1.62

Summary line: CCCCOC(=O)NCCCC[C@H](NC(=O)OC(C)(C)C)C(=O)N[C@H](C(=O)OC(c1ccccc1)c1ccccc1)[C@H]1O[C@@H](n2ccc(=O)[nH]c2=O)[C@@H]2OC(C)(C)O[C@@H]21 , Glucose transporter (Leishmania mexicana), reported inhibition = 0.44

Entry Cc1cccc2nc(-c3cccc(-c4cccc(NC(=O)NC5CC5c5ccccc5)c4)c3)[nH]c12 (centres undefined) , tested on Glucose transporter (Leishmania mexicana), has a reported inhibition of 5.21

Record for CC(C)CNCc1cccc(-c2ccc(CNC3CCN(Cc4ccccc4)CC3)cc2)c1 under target or system Glucose transporter (Leishmania mexicana): inhibition reported as 4.78

Item: CC(C)(C)n1nnnc1C(c1cccnc1)N(Cc1ccccc1)Cc1ccc(Cl)cc1 (centres undefined) | System: Glucose transporter (Leishmania mexicana) | inhibition: 2.8

Noted inhibition for CC12CN3CC(C)(CN(C1)C3c1cc(Br)ccc1O)C2O (centres undefined) , tested on Glucose transporter (Leishmania mexicana): 4.22

Summary line: CCCCCN1CCC(NS(=O)(=O)c2cccc(C(=O)Nc3ccc(Cl)cc3)c2)CC1 , Glucose transporter (Leishmania mexicana), reported inhibition = 2.4

Noted inhibition for O=C(Nc1ccc(Cl)c(Cl)c1)Nc1ccc2nccc(N3CCNCC3)c2c1 , tested on Glucose transporter (Leishmania mexicana): 0.13

###

# assayTarget: Solute carrier family 2, facilitated glucose transporter member 1 (Homo sapiens) (UniProt P11166)
# Sequence (P11166 whole entry): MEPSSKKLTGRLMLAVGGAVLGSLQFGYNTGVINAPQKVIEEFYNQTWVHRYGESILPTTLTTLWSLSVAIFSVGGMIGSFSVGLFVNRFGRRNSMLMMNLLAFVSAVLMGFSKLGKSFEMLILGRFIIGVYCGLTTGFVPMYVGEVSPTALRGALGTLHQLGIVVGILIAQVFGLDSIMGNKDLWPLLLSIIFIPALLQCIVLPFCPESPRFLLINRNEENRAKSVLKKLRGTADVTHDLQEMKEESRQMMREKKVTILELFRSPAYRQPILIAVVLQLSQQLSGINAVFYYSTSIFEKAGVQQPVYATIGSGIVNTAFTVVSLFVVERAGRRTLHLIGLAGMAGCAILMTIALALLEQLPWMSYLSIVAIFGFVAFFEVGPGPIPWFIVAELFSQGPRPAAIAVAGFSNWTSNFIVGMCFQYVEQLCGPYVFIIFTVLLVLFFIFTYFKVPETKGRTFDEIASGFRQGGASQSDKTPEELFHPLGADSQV
# assayDetails: ST_JUDE_LEISH: Cytotoxicity at 2uM final concentration against transgenic Leishmania Mexicana promastigotes LmGLUT1 that are glucose transport deficient and complemented with the human glucose transporter GLUT1. Activity is measured by DNA content using SYBR green in vitro
# Type: functional
propertyMeasured: inhibition (%)
Answer format: numeric, % implied, no suffix.

Looking up Cc1nc2ccccc2c(O)c1-c1ccc(Cl)cc1 , I see its inhibition listed as 1.42

So for COc1ccc(Cl)cc1N1CCN(CCCNC(=O)c2ccc(-c3nc4cc5ccccc5cc4[nH]3)c(F)c2)CC1 , the logged inhibition turned out to be 1.51

Query FC(F)(F)c1ccc2[nH]c(-c3ccc(-c4cccc(CNCc5ccccc5)c4)s3)nc2c1 yields inhibition of 2.04

The recorded inhibition for CCCNCc1ccc(-c2ccc(CN(CCOC)C(=O)c3ccccc3)cc2)nc1 is 1.21

Notebook: COc1cccc(NC(=O)c2cc(Br)cc(N3CCN(c4ccncc4)CC3)c2)c1 , inhibition read as 2.41

Input COc1ccc(-c2cccc(NC(=O)c3ccc(C#N)cc3)c2)cc1CN1CCCC1 . Output inhibition: 11.3

// field: inhibition; key: Cc1nn(-c2cccc(C(F)(F)F)c2)c2sc(C(=O)NC3CCN(C(C)C)CC3)cc12 ; value = 1.73

The compound listed as O=C(NCCc1ccccc1)c1cc(-c2cccnc2)cnc1NCC1CC1 shows inhibition equal to 3.62

So for FC(F)(F)c1cccnc1N1CCC(Nc2nc3cc(Cl)ccc3[nH]2)CC1 , the logged inhibition turned out to be 5.58

Record summary for O=c1cc(NCCCCNCc2cccc(Br)c2)[nH]c2ccccc12 : reported inhibition = 5.23

Given item COc1cc2nc(NCCc3ccccc3)nc(NCc3ccc(C#N)cc3)c2cc1OC , the value recorded as its inhibition is 3.59

Just so you know, measured inhibition for Cn1nc(-c2ccccc2F)c2cc(C(=O)Nc3cccnc3)sc21 came out at 3.76

inhibition reading for Fc1ccc2c(NN=Cc3ccc(Cl)cc3)ccnc2c1 : 10.8

Entry COc1ccc(-c2c(C(F)(F)F)nn(C)c2NC(=O)Nc2ccc(F)cc2F)cc1 , inhibition reported as -1.15

Notebook: Cn1cncc1CNCc1ccc(-c2cccc(-c3nc4ccccc4[nH]3)c2)cc1 , inhibition read as -1.06

Lab book: inhibition of Cc1cccc2nc(-c3cccc(-c4cccc(C(=O)NCCc5cn(C)cn5)c4)c3)[nH]c12 noted as -0.8

// sample O=S(=O)(NCCN1CCCC1)c1cccc(-c2cccc(CNCc3ccccc3)c2)c1 , its inhibition was 20

inhibition recorded for this compound, c1cc(CNC2Cc3ccccc3C2)cc(-c2cnc(N3CCNCC3)nc2)c1 , is 0.76

compound COc1ccc(OC)c(-c2cccc(-c3cccc(NC(=O)c4ccc([N+](=O)[O-])o4)c3)n2)c1 , inhibition observed: 6.43

Input COc1cc2cc(C(=O)Nc3ccccc3)c(N)nc2cc1OC . Output inhibition: 0.36

get_value(item= CCOC(=O)c1cc(=O)c2ccc(OCC#N)cc2o1 , readout=inhibition) returns 88.5

###

# assayTarget: Solute carrier family 2, facilitated glucose transporter member 1 (Homo sapiens) (UniProt P11166)
# assayDetails: ST_JUDE_LEISH: Cytotoxicity at 2uM final concentration against transgenic Leishmania Mexicana promastigotes LmGLUT1 that are glucose transport deficient and complemented with the human glucose transporter GLUT1. Activity is measured by DNA content using SYBR green in vitro
# Format: functional
propertyMeasured: inhibition (%)
Form entry: value (%) — number only.

What the record says about Cc1cc(N(C)CCCN(C)C)nc(Nc2ccc(Br)cc2)n1 : inhibition is 0.19

Consider COc1ccc(-c2cncc3ccc(C(=O)NCc4ccncc4)nc23)cc1 . Its measured inhibition is 6.53

Measured inhibition of Fc1ccc2[nH]c(-c3cccc(-c4ccc(CNCCN5CCNCC5)cc4)c3)nc2c1 : -0.21

Entry under test: CC(=O)Nc1cccc(C(=O)Nc2nc3ccc(-c4cc(=O)[nH]c(Nc5ccccc5Cl)n4)cc3[nH]2)c1 . Its inhibition was 4.21

compound COC(=O)C(=O)c1c(-c2ccccc2)c(-c2ccc(OC)c(OC)c2)c2c3cc(OC)c(OC)cc3ccn12 , inhibition observed: 13.2

Notebook: Cc1ccc(NC(=O)c2nc(N3CCN(c4ccncc4)CC3)ccc2Cl)cc1F , inhibition read as 13.1

CN(C)c1ccc(CN2CCC(CNC(=O)c3cc(-c4cccc(F)c4)cs3)C2)cc1 (stereo not given) has a reported inhibition of -1.95

What the record says about CC1(C)CN(CCC2CCC(NC(=O)/C=C/c3ccc(F)cc3F)CC2)Cc2ccc(C#N)cc21 (stereo not given) : inhibition is 2.36

inhibition reading for COc1cc(Cc2cnc(N)nc2N)cc(OCCCCC2SC(=O)NC2=O)c1OC (stereo not given) : 2.3

The recorded inhibition for entry Cc1cc(N(C)C)nc(Nc2ccc(NC(=O)c3cccc(F)c3)cc2)n1 equals 3.36

compound O=C(COc1ccc(Cl)c(Cl)c1)NCCCCCN1CCCN(C(=O)Nc2cc(Cl)cc(Cl)c2)CC1 , inhibition observed: 5.88

Recorded inhibition (compound CCCc1cc(Cc2cnc(N)nc2N)cc(OCCCCCC(=O)O)c1OC ): 1.55

Value of inhibition reported for the compound O=C(Nc1ccc(C(=O)N(Cc2ccc3c(c2)OCO3)C2CCCC2)cc1)c1cccs1 is 1.03

For record Cc1ccc(C(C(=O)Nc2ccc(N3CCNCC3)c(Cl)c2)c2ccccc2)cc1 (stereo not given) the listed inhibition is 4.78

Lab note: O=C(Nc1ccc(Cl)cc1)c1cccc(S(=O)(=O)NC2CCN(CC3CCCCC3)CC2)c1 gave inhibition of 0.8

Memo: Cc1nc(-c2nc(NCc3ccncc3)ncc2-c2ccsc2)sc1C , reported inhibition: -1.32

Entry under test: COc1cccc(Nc2nnc(SCC(=O)NNC(=O)c3ccccn3)s2)c1 . Its inhibition was 0.56

The measured inhibition associated with COCC(C)n1c(SCC(=O)Nc2cc(C(F)(F)F)ccc2Cl)nc2ccccc2c1=O (stereo not given) reads 6.25

Kindly note the recorded inhibition for CCCCCCCC1CC(CC(=O)Nc2ccnc3ccc(OC)cc23)CN1C(=O)OC(C)(C)C (stereo not given) , which is 9.12

Entry Cc1cc(Nc2cccc(C#N)c2)nc(Nc2ccccc2C)n1 — recorded inhibition = 77.7

Where do the numbers come from? From ChEMBL document CHEMBL3433997.
